# measurement_target: Gamma-secretase
# measurement_notes: Inhibition of beta amyloid protein 40
# Type: protein-complex assay, Homo sapiens
reported_metric: IC50 (µM)
# unit: µM | format: bare number

Q: Let me know recorded IC50 for CO[C@@H]1CC=CC(=O)[C@H]1OCc1ccccc1 , thanks.
Ans: 6.9

Q: Name the recorded IC50 of the item CO[C@@H]1C(=O)C=CC[C@H]1OCc1ccccc1 in your answer.
Ans: 33.9

Q: Please report IC50 for the following molecule: O=C1C=CCN(S(=O)(=O)c2ccccc2)C1Cc1ccccc1 (stereo not drawn)
Ans: 5.9

Q: Using known records, supply IC50 for O=C1C=CC[C@@H](OCc2ccccc2)[C@@H]1OCc1ccccc1
Ans: 1.6

====

# measurement_target: Gamma-secretase
# measurement_notes: Inhibition of beta amyloid protein 42
# Format: protein-complex assay, Homo sapiens
reported_metric: log10 IC50 (log10 of the value in µM)
Please keep in mind that the values are log10 of IC50 expressed in µM.

{"compound": "O=C1C=CC(O)N(C(=O)OCc2ccccc2)C1Cc1ccccc1 (centres undefined)", "measurement_target": "Gamma-secretase", "log10 IC50": -0.15}
{"compound": "CO[C@@H]1CC=CC(=O)[C@H]1OCc1ccccc1", "measurement_target": "Gamma-secretase", "log10 IC50": 1.01}
{"compound": "CO[C@@H]1CCCC(=O)[C@H]1OCc1ccccc1", "measurement_target": "Gamma-secretase", "log10 IC50": 1.14}

Q: Check the records and state log10 IC50 for O=C1C=CC[C@@H](OCc2ccccc2)[C@@H]1OCc1ccccc1
Ans: 0.04

Q: Give the value of log10 IC50 reported for the following: O=C1C=CCN(C(=O)OCc2ccccc2)C1Cc1ccccc1 (centres undefined)
Ans: 0.87

Q: Return log10 IC50 for the following compound: O=C1C=CCN(S(=O)(=O)c2ccccc2)C1Cc1ccccc1 (centres undefined)
Ans: 1.09

====

# measurement_target: Gamma-secretase
# measurement_notes: Inhibition of beta amyloid protein 40
# Format: protein-complex assay, Homo sapiens
Measured IC50 of individual entries

Solved entries (count: 5):
{"compound": "O=C1CCC[C@@H](OCc2ccccc2)[C@@H]1OCc1ccccc1", "IC50": "> 100 µM"}
{"compound": "CO[C@@H]1CCCC(=O)[C@H]1O", "IC50": "> 100 µM"}
{"compound": "CO[C@@H]1C(=O)CCC[C@H]1OCc1ccccc1", "IC50": "> 100 µM"}
{"compound": "CO[C@@H]1CC(O)CC(=O)[C@H]1OCc1ccccc1 (some centres undefined)", "IC50": "> 100 µM"}
{"compound": "CO[C@@H]1C(=O)CCC[C@H]1O", "IC50": "> 100 µM"}

Read the next record carefully.
Q: Find the measured IC50 of O=C1C=CCN(C(=O)OCc2ccccc2)C1Cc1ccccc1 (centres undefined) with Gamma-secretase as test system.
Ans: 4.6 µM

====

The following compounds are shown together with reported IC50 values.
# measurement_target: Gamma-secretase
# measurement_notes: Inhibition of beta amyloid protein 42
# Type: protein-complex assay, Homo sapiens

Before answering, review these 5 worked examples.
{"compound": "CO[C@@H]1C(=O)CC(O)C[C@H]1OCc1ccccc1 (stereo partly drawn)", "IC50": "> 100 µM"}
{"compound": "O=C(OCc1ccccc1)N1CCCC(O)C1Cc1ccccc1 (stereo not drawn)", "IC50": "> 100 µM"}
{"compound": "CO[C@@H]1C(=O)CCC[C@H]1OCc1ccccc1", "IC50": "> 100 µM"}
{"compound": "O=C1CCCN(C(=O)OCc2ccccc2)C1Cc1ccccc1 (stereo not drawn)", "IC50": "> 100 µM"}
{"compound": "COC(=O)N1CCCC(O)C1Cc1ccccc1 (stereo not drawn)", "IC50": "> 100 µM"}

Q: Determine reported IC50 for COC(=O)N1CCCC(=O)C1Cc1ccccc1 (stereo not drawn) ; test system: Gamma-secretase.
Ans: > 100 µM

Q: Output reported IC50 of the compound CO[C@@H]1CC(O)CC(=O)[C@H]1OCc1ccccc1 (stereo partly drawn) on Gamma-secretase.
Ans: > 100 µM

Q: Give Gamma-secretase IC50 for the following compound: O=C1CCC[C@@H](OCc2ccccc2)[C@@H]1OCc1ccccc1
Ans: > 100 µM

Q: Look up Gamma-secretase data: IC50 of CO[C@@H]1CCCC(=O)[C@H]1O , then report it.
Ans: > 100 µM

Q: Consider the compound O=C1C=CCN(C(=O)c2ccccc2)C1Cc1ccccc1 (stereo not drawn) tested on Gamma-secretase; state its IC50.
Ans: 2.2 µM

Q: Give IC50 only, for CO[C@@H]1C(=O)C=CC[C@H]1OCc1ccccc1 , using Gamma-secretase data.
Ans: 26 µM

Q: Name the value of IC50 reported for CO[C@@H]1C(=O)CCC[C@H]1O when tested on Gamma-secretase.
Ans: > 100 µM

Q: GET IC50 where system = Gamma-secretase and item = COC(=O)N1CC=CC(=O)C1Cc1ccccc1 (stereo not drawn)
Ans: 9.8 µM
